IC50 overview
# TESTED_TARGET: uterine OT receptors (Rattus norvegicus, UniProt P70536)
# Construct: from tissue; host or cells: uterus of DES-treated rats, crude membranes
# Sequence (P70536 whole entry): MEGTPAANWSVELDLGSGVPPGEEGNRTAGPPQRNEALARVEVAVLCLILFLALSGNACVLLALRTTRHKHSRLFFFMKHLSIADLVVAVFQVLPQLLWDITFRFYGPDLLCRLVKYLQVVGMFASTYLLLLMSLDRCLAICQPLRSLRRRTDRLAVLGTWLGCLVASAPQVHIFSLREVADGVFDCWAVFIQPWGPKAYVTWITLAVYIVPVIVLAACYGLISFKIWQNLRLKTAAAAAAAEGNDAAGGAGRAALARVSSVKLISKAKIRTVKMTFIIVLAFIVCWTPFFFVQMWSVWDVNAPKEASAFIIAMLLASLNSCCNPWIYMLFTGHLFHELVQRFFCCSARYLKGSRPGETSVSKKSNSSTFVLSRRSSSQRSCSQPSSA
# PROTOCOL_NOTES: [^3 H]OT binding to uterine OT receptors, crude membrane preparation of uteri from DES-treated rats
# CONDITION_DETAILS: Receptor Binding Results IC50 (nM) [^3 H]OT
Square brackets hold non-standard residues; d marks the D form. Peptide text beside a SMILES is read from it. dPiz(1,6-dehydro) = O=C(O)[C@H]1CCC=NN1; dNMeF = CN[C@H](Cc1ccccc1)C(=O)O; Pip = O=C(O)[C@@H]1CCCCN1; dPip = O=C(O)[C@H]1CCCCN1; Orn = NCCC[C@H](N)C(=O)O

>  <COMPOUND>
CC[C@H](C)[C@@H]1NC(=O)[C@@H](Cc2c[nH]c3ccccc23)NC(=O)[C@@H]2CCCN2C(=O)[C@@H](Cc2ccccc2)N(C)C(=O)[C@H](CCCN)NC(=O)[C@H]2CCC=NN2C1=O [Example 127] (cyclo(I[dPiz(1,6-dehydro)][Orn][dNMeF]P[dW]))

>  <TESTED_TARGET>
uterine OT receptors (Rattus norvegicus, UniProt P70536)

>  <IC50 (nM)>
22

$$$$
>  <COMPOUND>
CC[C@H](C)[C@@H]1NC(=O)[C@@H](Cc2c[nH]c3ccccc23)NC(=O)[C@@H]2CCCN2C(=O)[C@@H](Cc2cnc[nH]2)NC(=O)[C@@H]2CCCCN2C(=O)[C@H]2CCC=NN2C1=O [Example 184] (cyclo(I[dPiz(1,6-dehydro)][Pip][dH]P[dW]))

>  <TESTED_TARGET>
uterine OT receptors (Rattus norvegicus, UniProt P70536)

>  <IC50 (nM)>
6

$$$$
>  <COMPOUND>
CC[C@H](C)[C@@H]1NC(=O)[C@@H](Cc2c[nH]c3ccccc23)NC(=O)[C@@H]2CCCN2C(=O)[C@@H](Cc2c[nH]cn2)NC(=O)[C@@H]2CCCCN2C(=O)[C@H]2CCCCN2C1=O [Example 17] (cyclo(I[dPip][Pip][dH]P[dW]))

>  <TESTED_TARGET>
uterine OT receptors (Rattus norvegicus, UniProt P70536)

>  <IC50 (nM)>
14

$$$$
>  <COMPOUND>
CC(C)C[C@@H]1NC(=O)[C@@H](Cc2c[nH]c3ccccc23)NC(=O)[C@@H]2CCCN2C(=O)[C@@H](Cc2c[nH]cn2)NC(=O)[C@@H]2CCCCN2C(=O)[C@H]2CCCCN2C1=O [Example 21] (cyclo(L[dPip][Pip][dH]P[dW]))

>  <TESTED_TARGET>
uterine OT receptors (Rattus norvegicus, UniProt P70536)

>  <IC50 (nM)>
190

$$$$

----------
# TESTED_TARGET: AVP-V1 sites (Rattus norvegicus)
# Construct: crude membrane preparation of male rat liver (AVP-V1 sites); from tissue; host or cells: male rat liver, crude membranes
# PROTOCOL_NOTES: [^3 H]AVP binding to crude membrane preparation of male rat liver (AVP-V1 sites)
# CONDITION_DETAILS: Receptor Binding Results IC50 (nM) [^3 H]-AVP-V1
Numbered stars: 1 amine (or outer) side, 2 acyl side, 3 side chain; on linkers, the order of the positions; unused ones are H or OH. Square brackets hold non-standard residues; d marks the D form. Peptide text beside a SMILES is read from it. * marks the point of attachment. dPip(4-aza,4-Cbz) = O=C(O)[C@H]1CN(C(=O)OCc2ccccc2)CCN1; X2 = O=C(OCc1ccccc1)N1CCN([*:1])[C@H](C(=O)[*:2])C1; dNMeF = CN[C@H](Cc1ccccc1)C(=O)O; hPhe = N[C@@H](CCc1ccccc1)C(=O)O; Pip = O=C(O)[C@@H]1CCCCN1; dPip = O=C(O)[C@H]1CCCCN1; Orn = NCCC[C@H](N)C(=O)O; Cbz = O=C(OCc1ccccc1)*

>  <MOLECULE>
CC[C@H](C)[C@@H]1NC(=O)[C@@H](Cc2ccccc2)NC(=O)[C@@H]2CCCN2C(=O)[C@@H](Cc2ccccc2)N(C)C(=O)[C@@H]2CN(C(=O)OCc3ccccc3)CCN2C(=O)[C@H]2CN(C(=O)OCc3ccccc3)CCN2C1=O [Example 86] (cyclo(I[dPip(4-aza,4-Cbz)][X2][dNMeF]P[dF]))

>  <IC50>
> 10000 nM

$$$$
>  <MOLECULE>
C[C@@H]1NC(=O)[C@@H](Cc2ccccc2)NC(=O)[C@@H]2CCCN2C(=O)[C@@H](Cc2ccccc2)N(C)C(=O)[C@@H]2CCCCN2C(=O)[C@H]2CCCCN2C1=O [Example 9] (cyclo(A[dPip][Pip][dNMeF]P[dF]))

>  <IC50>
> 10000 nM

$$$$
>  <MOLECULE>
CC[C@H](C)[C@@H]1NC(=O)[C@@H](Cc2c[nH]c3ccccc23)NC(=O)[C@@H]2CCCN2C(=O)[C@H](Cc2c[nH]cn2)NC(=O)[C@H](CCCNC(=O)OCc2ccccc2)NC(=O)[C@H]2CCCN2C1=O [Example 95] (cyclo([dW]I[dP][Orn](Cbz)HP))

>  <IC50>
> 10000 nM

$$$$
>  <MOLECULE>
CN1C(=O)[C@@H]2CCCCN2C(=O)[C@H]2CCCCN2C(=O)[C@H](CCc2ccccc2)NC(=O)[C@@H](Cc2c[nH]c3ccccc23)NC(=O)[C@@H]2CCCN2C(=O)[C@H]1Cc1ccccc1 [Example 133] (cyclo(P[dW][hPhe][dPip][Pip][dNMeF]))

>  <IC50>
10000 nM

$$$$

----------
# TESTED_TARGET: AVP-V1 sites (Rattus norvegicus, UniProt P30560)
# Construct: crude membrane preparation of male rat liver (AVP-V1 sites); from tissue; host or cells: male rat liver, crude membranes
# Sequence (P30560 whole entry): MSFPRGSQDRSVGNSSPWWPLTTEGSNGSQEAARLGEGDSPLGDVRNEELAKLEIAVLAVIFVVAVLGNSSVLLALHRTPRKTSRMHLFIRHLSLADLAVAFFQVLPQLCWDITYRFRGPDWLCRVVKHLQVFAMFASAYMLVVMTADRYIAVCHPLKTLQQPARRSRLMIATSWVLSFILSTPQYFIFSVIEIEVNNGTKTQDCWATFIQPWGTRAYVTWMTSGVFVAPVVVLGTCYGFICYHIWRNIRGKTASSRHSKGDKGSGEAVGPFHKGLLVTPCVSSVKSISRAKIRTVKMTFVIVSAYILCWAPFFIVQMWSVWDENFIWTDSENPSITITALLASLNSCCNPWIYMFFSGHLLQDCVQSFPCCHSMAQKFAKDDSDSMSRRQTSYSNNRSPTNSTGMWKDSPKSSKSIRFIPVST
# PROTOCOL_NOTES: [^3 H]AVP binding to crude membrane preparation of male rat liver (AVP-V1 sites)
# CONDITION_DETAILS: Receptor Binding Results IC50 (nM) [^3 H]-AVP-V1
Numbered stars: 1 amine (or outer) side, 2 acyl side, 3 side chain; on linkers, the order of the positions; unused ones are H or OH. Square brackets hold non-standard residues; d marks the D form. Peptide text beside a SMILES is read from it. * marks the point of attachment. X8 = Cn1c[n+](C)cc1C[C@@H](N[*:1])C(=O)[*:2]; X6 = O=C([C@H]1CCCNN1[*:1])[*:2]; dNMeF = CN[C@H](Cc1ccccc1)C(=O)O; hPhe = N[C@@H](CCc1ccccc1)C(=O)O; Pip = O=C(O)[C@@H]1CCCCN1; dPip = O=C(O)[C@H]1CCCCN1; Orn = NCCC[C@H](N)C(=O)O; dNMeA = CN[C@H](C)C(=O)O; Boc = CC(C)(C)OC(=O)*; OtBu = CC(C)(C)O*

>  <COMPOUND>
CN1C(=O)[C@@H]2CCCCN2C(=O)[C@H]2CCCCN2C(=O)[C@H](CCc2ccccc2)NC(=O)[C@@H](Cc2c[nH]c3ccccc23)NC(=O)[C@@H]2CCCN2C(=O)[C@H]1Cc1ccccc1 [Example 32] (cyclo(P[dW][hPhe][dPip][Pip][dNMeF]))

>  <IC50>
> 10000 nM

$$$$
>  <COMPOUND>
CN1C(=O)[C@@H]2CCCCN2C(=O)[C@H]2CCCCN2C(=O)[C@H](Cc2ccccc2)NC(=O)[C@@H](Cc2c[nH]c3ccccc23)NC(=O)[C@@H]2CCCN2C(=O)[C@H]1Cc1ccccc1 [Example 31] (cyclo(F[dPip][Pip][dNMeF]P[dW]))

>  <IC50>
> 10000 nM

$$$$
>  <COMPOUND>
CC[C@H](C)[C@@H]1NC(=O)[C@@H](Cc2ccccc2)NC(=O)[C@@H]2CCCCN2C(=O)[C@@H](Cc2ccccc2)N(C)C(=O)[C@@H]2CCCCN2C(=O)[C@H]2CCCCN2C1=O [Example 108] (cyclo(I[dPip][Pip][dNMeF][Pip][dF]))

>  <IC50>
10000 nM

$$$$
>  <COMPOUND>
CC[C@H](C)[C@@H]1NC(=O)[C@@H](Cc2ccccc2)NC(=O)[C@@H]2CCCN2C(=O)[C@@H](Cc2ccccc2)N(C)C(=O)[C@@H](C)N(C)C(=O)[C@H]2CCCCN2C1=O [Example 6] (cyclo([dF]I[dPip][dNMeA][dNMeF]P))

>  <IC50>
> 10000 nM

$$$$
>  <COMPOUND>
CC[C@H](C)[C@@H]1NC(=O)[C@@H](Cc2ccccc2)NC(=O)[C@@H]2CCCN2C(=O)[C@@H](Cc2ccccc2)N(C)C(=O)[C@H](CC(=O)OC(C)(C)C)NC(=O)[C@H]2CCCCN2C1=O [Example 115] (cyclo(D(OtBu)[dNMeF]P[dF]I[dPip]))

>  <IC50>
> 10000 nM

$$$$
>  <COMPOUND>
CC[C@H](C)[C@@H]1NC(=O)[C@@H](Cc2c[nH]c3ccccc23)NC(=O)[C@@H]2CCCN2C(=O)[C@@H](Cc2c[nH]cn2)NC(=O)[C@H](CCCNC(=O)OC(C)(C)C)NC(=O)[C@H]2CCCNN2C1=O [Example 128] (cyclo(I[X6][Orn](Boc)[dH]P[dW]))

>  <IC50>
10000 nM

$$$$
>  <COMPOUND>
CC[C@H](C)[C@@H]1NC(=O)[C@@H](Cc2c[nH]cn2)NC(=O)[C@@H]2CCCN2C(=O)[C@@H](Cc2ccccc2)N(C)C(=O)[C@@H]2CCCCN2C(=O)[C@H]2CCCCN2C1=O [Example 4] (cyclo(I[dPip][Pip][dNMeF]P[dH]))

>  <IC50>
> 10000 nM

$$$$
>  <COMPOUND>
CC[C@H](C)[C@@H]1NC(=O)[C@@H](Cc2c[nH]c3ccccc23)NC(=O)[C@@H]2CCCN2C(=O)[C@@H](Cc2c[n+](C)cn2C)NC(=O)[C@@H]2CCCCN2C(=O)[C@H]2CCCCN2C1=O [Example 18] (cyclo(I[dPip][Pip][X8]P[dW]))

>  <IC50>
> 1000 nM

$$$$
